All figures here come from ChEMBL document CHEMBL4387790.

target: Phosphotyrosine protein phosphatase (Mycobacterium tuberculosis, UniProt A0A045ISB3); assay: Inhibition of Mycobacterium tuberculosis H37Ra PTPB using p-nitrophenyl phosphate as substrate
Sequence (A0A045ISB3 whole entry): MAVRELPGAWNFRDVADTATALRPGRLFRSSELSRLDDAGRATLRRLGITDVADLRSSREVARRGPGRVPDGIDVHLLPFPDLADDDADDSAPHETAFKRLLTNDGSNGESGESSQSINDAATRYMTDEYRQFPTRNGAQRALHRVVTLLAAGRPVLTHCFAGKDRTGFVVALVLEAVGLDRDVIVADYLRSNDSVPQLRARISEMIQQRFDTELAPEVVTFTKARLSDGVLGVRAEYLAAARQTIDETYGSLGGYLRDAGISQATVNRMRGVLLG
MEASUREMENT LABEL: IC50

{"INPUT SMILES": "CC(C)[C@H]1CC[C@@]2(C)CC[C@]3(CO)CC4=C(C(=O)O)CC[C@H]4[C@]4(C)C[C@@H]4[C@H]3[C@H]12", "RESULT": "2200 nM"}

###

test: Cytotoxicity against mouse RAW264.7 cells assessed as reduction in cell viability by MTT assay; format: cell-based
Let's look at some molecules and their measured CC50.

{"INPUT SMILES": "CC1=CC(=O)[C@@H]2/C(C=O)=C\\C[C@H]3[C@@H]([C@@H](C)/C=C\\[C@@H](O)C(C)(C)O)CC[C@]3(C)C[C@H]12", "CC50": "> 50 µM"}
{"INPUT SMILES": "CC(C)=C/C=C\\[C@H](C)[C@H]1CC[C@]2(C)CC3=C(C(=O)C[C@H]3C)/C(CO)=C\\C[C@@H]12", "CC50": "> 50 µM"}
{"INPUT SMILES": "CC1=CC(=O)[C@H]2/C(C=O)=C\\C[C@H]3[C@@H]([C@@H](C)/C=C\\[C@H](O)C(C)(C)O)CC[C@]3(C)C[C@H]12", "CC50": "> 50 µM"}
{"INPUT SMILES": "CC1=CC(=O)[C@H]2/C(C=O)=C\\C[C@H]3[C@@H]([C@@H](C)/C=C\\[C@@H]4OC4(C)C)CC[C@]3(C)C[C@H]12", "CC50": "> 50 µM"}
{"INPUT SMILES": "CC(C)=C/C=C\\[C@H](C)[C@H]1CC[C@]2(C)C[C@H]3[C@H](C(=O)C[C@@]3(C)O)/C(C=O)=C\\C[C@@H]12", "CC50": "4.8 µM"}
{"INPUT SMILES": "CC(C)=C/C=C\\[C@H](C)[C@H]1CC[C@]2(C)C[C@H]3[C@H]4/C(=C\\C[C@@H]12)CO[C@@]4(O)C[C@@]3(C)O", "CC50": "31 µM"}

###

assay: Cytotoxicity against mouse RAW264.7 cells assessed as reduction in cell viability by MTT assay; assay type: cell-based
Let's look at some molecules and their measured CC50.

{"INPUT SMILES": "CC1=CC(=O)[C@H]2/C(C=O)=C\\C[C@H]3[C@@H]([C@@H](C)/C=C\\[C@@H](O)C(C)(C)O)CC[C@]3(C)C[C@H]12", "CC50": "> 50 µM"}
{"INPUT SMILES": "CC(C)=C/C=C\\[C@H](C)[C@H]1CC[C@]2(C)C[C@H]3[C@@H]4/C(=C\\C=C\\12)C(=O)N[C@]4(O)C[C@@]3(C)O", "CC50": "> 50 µM"}
{"INPUT SMILES": "CC(C)=C/C=C\\[C@H](C)[C@H]1CC[C@]2(C)C[C@H]3[C@@H](C(=O)C[C@@]3(C)O)/C(C=O)=C\\C[C@@H]12", "CC50": "15 µM"}
{"INPUT SMILES": "CC(C)=C/C=C\\[C@H](C)[C@H]1CC[C@]2(C)C[C@@H]3C(C)=CC(=O)[C@H]3/C(C=O)=C\\C[C@@H]12", "CC50": "3.8 µM"}
{"INPUT SMILES": "CC(C)=C/C=C\\[C@H](C)[C@H]1CC[C@]2(C)C[C@H]3[C@@H](/C(C=O)=C\\C[C@@H]12)[C@H](O)C[C@@]3(C)O", "CC50": "> 50 µM"}
{"INPUT SMILES": "CC(C)=C/C=C\\[C@H](C)[C@H]1CC[C@]2(C)C[C@@H]3C(C)=CC(=O)[C@H]3/C(CO)=C\\C[C@@H]12", "CC50": "> 50 µM"}
{"INPUT SMILES": "CO[C@]12C[C@@](C)(O)[C@H]3C[C@@]4(C)CC[C@H]([C@@H](C)/C=C\\C=C(C)C)/C4=C/C=C(/C(=O)N1)[C@@H]32", "CC50": "> 50 µM"}
{"INPUT SMILES": "COc1ccc2c(c1)c(CC(=O)O)c(C)n2C(=O)c1ccc(Cl)cc1", "CC50": "> 50 µM"}
{"INPUT SMILES": "CC(C)=C/C=C\\[C@H](C)[C@H]1CC[C@]2(C)C[C@H]3[C@H]4/C(=C\\C[C@@H]12)C(=O)O[C@H]4C[C@@]3(C)O", "CC50": "29 µM"}
{"INPUT SMILES": "CC(C)=C/C=C\\[C@H](C)[C@H]1CC[C@]2(C)C[C@@H]3C(C)=CC(=O)[C@H]3/C(C(=O)O)=C\\C[C@@H]12", "CC50": "> 50 µM"}
{"INPUT SMILES": "CC1=CC(=O)[C@@H]2/C(C=O)=C\\C[C@H]3[C@@H]([C@@H](C)/C=C\\[C@H](O)C(C)(C)O)CC[C@]3(C)C[C@H]12", "CC50": "> 50 µM"}
{"INPUT SMILES": "CO[C@]12C[C@@](C)(O)[C@H]3C[C@@]4(C)CC[C@H]([C@@H](C)/C=C\\C=C(C)C)[C@@H]4C/C=C(/C(=O)N1)[C@@H]32", "CC50": "> 50 µM"}
{"INPUT SMILES": "CC(C)=C/C=C\\[C@H](C)[C@H]1CC[C@]2(C)C[C@H]3[C@@H]4/C(=C\\C=C\\12)C(=O)N[C@@H]4C[C@@]3(C)O", "CC50": "> 50 µM"}
